# fold above background annotations
biological target: recombinant human ATX beta isoform with N-terminal purification tag (human, UniProt Q13822 49-863); experiment: Fab-His ELISA

[
  {
    "binder": "Fab F17 (VH H11, VL L14) (Fab, V domains shown, Soluble Fab-His (E. coli supernatant); converted to mAb B3) VH: EVQLVQSGAEVKKPGESLKISCKGSGYSFTSYWIGWVRQMPGKGLEWMGIIYPGDSDTRYSPSFQGQVTISADKSISTAYLQWSSLKASDTAMYYCARPYGTFDYWGQGTLVTVSS VL: EIVLTQSPATLSLSPGERATLSCRASQSVADSLAWYQQKPGQAPRLLIYKASNRATGIPARFSGSGSGTDFTLTISSLEPEDFAVYYCQQSNGWPRTFGQGTKVEIK",
    "observed.property": "fold above background",
    "observed.value": "≥ 6 fold"
  }
]

// lookup fold above background for Fab F96 (VH H89, VL IFWL124) (Fab, V domains shown, Soluble Fab-His; converted to mAb B8) VH: QVQLVQSGAEVKKPGSSVKVSCKASGGTFSSYAISWVRQAPGQGLEWMGGIIPIFGTANYAQKFQGRVTITADESTSTAYMELSSLRSEDTAVYYCARDSSAYGDFDYWGQGTLVTVSS VL: DIQMTQSPSSLSASVGDRVTITCRASQSIDGWLNWYQQKPGKAPKLLIYAASSLQSGVPSRFSGSGSGTDFTLTISSLQPEDFATYYCQQSYSTPLTFGQGTKVEIK
≥ 6 fold

Source of measurements: patent US20150087812A1
